Below: a set of entries, each annotated with reported Reduction.
experiment: Deodorization test 1; conditions: Acetaldehyde, initial 10 ppm, after 30 minutes; 0.2 ml of 10% by weight aqueous solution
Please give a number only; it is taken to be in %.

STRUCTURE_NOTATION	Reduction / %
NCCCC[C@H](N)C(=O)O	10
NCC(=O)O	80
CC(C)[C@H](N)C(=O)O	0

[ask] Look at this compound and give its reported Reduction. `N[C@@H](CS)C(=O)O`
[reply] 0

[ask] # repeat for `N[C@@H](Cc1c[nH]c2ccccc12)C(=O)O`
[reply] 10

[ask] Next record, please: `O=C(O)[C@@H]1CCCN1`
[reply] 20

[ask] How about `N=C(N)NCCC[C@H](N)C(=O)O` ?
[reply] 10

[ask] Another compound to look at: `CSCC[C@H](N)C(=O)O`
[reply] 10

* * *

assay: Deodorization test 1; conditions: Isovaleric acid, initial concentration 10 ppm; 0.2 ml of 10% by weight aqueous solution
PROPERTY: Concentration after 30 minutes (ppm)
Numbers only here, please. The scale is ppm.

Here is how some compounds turned out for Concentration after 30 minutes.
STRUCTURE_NOTATION	Concentration after 30 minutes, ppm
CC(C)[C@H](N)C(=O)O	10
N=C(N)NCCC[C@H](N)C(=O)O	10
N[C@@H](CS)C(=O)O	8
N[C@@H](Cc1c[nH]c2ccccc12)C(=O)O	10
CSCC[C@H](N)C(=O)O	10
O=C(O)[C@@H]1CCCN1	10

[ask] Fill in the blank: the reported Concentration after 30 minutes of `NCCCC[C@H](N)C(=O)O` is ____.
[reply] 10

[ask] What about this compound? `NCC(=O)O`
[reply] 1
